assay: Human HepG2 cell viability assay in 384 well format
Type: toxicity, cell-based
Parameters: dose 125 nL, time 70.5 hour; concentration not given beside the values
assay_setup: HepG2 cells, read-out: Inhibition

compound	reading_unit	cytotoxicity at 70.5 h
COCC(=O)N1CCC2(CC1)CC(OC)CO2 (stereo not drawn)	%	-7.5
NC(=O)c1ccc(=O)n(Cc2cc(Br)ccc2Cl)n1	%	-5.48
Cn1cc(CNC2CCc3c(ccc(=O)n3Cc3ccncc3)C2)cn1 (stereo not drawn)	%	-15.3
CCc1nnc2n1CCN(CCC(=O)Nc1sccc1C#N)C2	%	-3.22
O=C(NCc1ccccc1F)NC1CCCN(c2ncccn2)C1 (stereo not drawn)	%	-4.69
CN(C)C(=O)Cc1ccc(-c2cccc3c2CCNC3)cc1	%	-21.8
COC(=O)C(C)(C)NC(=O)C1CC(=O)N(C)C1 (stereo not drawn)	%	-7.02
Cc1noc(CN(Cc2cccs2)C2CC2)n1	%	17.3
Cc1nn(C)c(N(C)C)c1CNCc1ccnc(N2CCCCC2)c1	%	-2.08
CCC(Nc1nnnn1-c1ccccc1)C(=O)NCc1ccsc1 (stereo not drawn)	%	-12.5
CCC1CN(Cc2nc(C(C)C)no2)CCC(=O)N1Cc1ccccc1 (stereo not drawn)	%	22.7
Cc1cccc(C(=O)NCCNCC2CNc3ccnn3C2)c1 (stereo not drawn)	%	-1.43
CCN1CCC2(CC1)CC(NCc1cccs1)c1ccccc1O2 (stereo not drawn)	%	-5.71
CC(Cc1ccc2c(c1)OCO2)c1cn(CCN2CCCC2)nn1 (stereo not drawn)	%	-12
OCc1ccc(OCC(F)(F)F)cc1	%	-8.76
CC(CNc1cncc(-n2cccn2)n1)N(C)c1ccccc1 (stereo not drawn)	%	1.39
Cc1cc(N2CCC(CC(N)=O)CC2)nc(-c2ccncc2)n1	%	-6.56
CN1CCC2(CC1)C(=O)N(CC1CC1)c1ccccc12	%	-9.7
